Test system: Drosophila S2 cl14 SmoIP sensor cells;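 also: flow cytometry read-out as median GFP intensity of gated cells, compounds added 30 min before Hh-conditioned or mock medium, mock-treated cells serving as unstimulated baseline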
test-details: normalized SmoIP GFP fluorescence (untreated unstimulated = 0%, untreated Hh-stimulated = 100%); higher = more Smo activation sensor fluorescence
condition-parameters: stimulation: Hh conditioned medium (+Hh); compound concentration: 2 uM; 24 h
Counter-ions that a name gives are not always drawn.
Quick list: normalized SmoIP GFP fluorescence per entry.
Kindly provide the numeric value in % only, without the unit symbol.

- compound: "CCOC(=O)c1ncn2c1CN(C)C(=O)c1cc(F)ccc1-2 [Flumazenil]"
  normalized SmoIP GFP fluorescence, %: 110

Given C1=C/COCc2cc(ccc2OCCN2CCCC2)Nc2nccc(n2)-c2cccc(c2)COC/1 [pacritinib-sb1518] , state its recorded normalized SmoIP GFP fluorescence.
114

Param item = CN(C)C(=O)C(CCN1CCC(O)(c2ccc(Cl)cc2)CC1)(c1ccccc1)c1ccccc1 [Loperamide-hydrochloride] ; retrieve measured normalized SmoIP GFP fluorescence.
106

Fill blank: measured normalized SmoIP GFP fluorescence of the compound `CC(C)N(CCCNC(=O)Nc1ccc(C(C)(C)C)cc1)C[C@H]1O[C@@H](n2cc(Br)c3c(N)ncnc32)[C@H](O)[C@@H]1O` is ____.
140
